test system: 565232-114-T-J1-PDC complex spheroid viability; assay: Anticancer human tumor 565232-114-T-J1-PDC patient-derived bladder carcinoma cell line growth inhibition [CLK]; details: second compound 3.16 µM; first compound 3.16 µM; active means viability on the fitted dose curve at most 10% of control; inactive means the rest;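 further: spheroids exposed to compounds for 7 days before readout; 100% = DMSO vehicle wells with luminescence normalized to vehicle control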
Reply using exactly one outcome from true (1) = active, false (0) = inactive

Study these solved cases before continuing.
compound="CC(=O)O[C@H]1C(=O)[C@@]2(C)[C@H]([C@H](OC(=O)c3ccccc3)[C@]3(O)C[C@H](OC(=O)[C@H](O)[C@@H](NC(=O)c4ccccc4)c4ccccc4)C(C)=C1C3(C)C)[C@]1(OC(C)=O)CO[C@@H]1C[C@@H]2O + CN1CCN(c2cc(C(=O)Nc3cc4cc(-c5cnn(C)c5)ccc4cn3)ccn2)CC1" assigned_class="true (1)"
compound="CC(CO)NC(=O)c1cc(-c2ccc(Cl)cc2)nn(-c2cnn(C)c2)c1=O (stereo unspecified) + CNC(=O)c1ccc(Nc2nc(OC3CCCC3)c3c(-c4ccc5nc(C)oc5c4)c[nH]c3n2)c(OC)c1" assigned_class="false (0)"
compound="CC(CO)NC(=O)c1cc(-c2ccc(Cl)cc2)nn(-c2cnn(C)c2)c1=O (stereo unspecified) + CN1CCN(c2cc(C(=O)Nc3cc4cc(-c5cnn(C)c5)ccc4cn3)ccn2)CC1" assigned_class="true (1)"

## Task Look up the recorded call for O=C(c1cc(Cc2n[nH]c(=O)c3ccccc23)ccc1F)N1CCN(C(=O)C2CC2)CC1 + CNC(=O)c1ccc(Nc2nc(OC3CCCC3)c3c(-c4ccc5nc(C)oc5c4)c[nH]c3n2)c(OC)c1 in this test.
## Result false (0)
